Data origin, for the record: a melting point compilation (Tetko et al.)

PARAMETER_MEASURED: melting point

COMPOUND | melting point
COc1cc2c(cc1OC)C(CC#N)NCC2 (stereo not drawn) | 110 to 114 °C
CC(=O)CC(O)C(Cl)(Cl)Cl (stereo not drawn) | 75 to 76 °C

Switching to the query record.
input: Write down melting point measured for item CCCC(C(N)=O)c1ccc(O)c(O)c1 (stereo not drawn)
output: 133 to 135 °C

====

PARAMETER_MEASURED: melting point

input: Annotate the compound `CN(C)c1ccc(C=C2SC(=S)NC2=O)cc1` with its measured melting point.
output: 285 to 288 °C

====

# melting point annotations

STRUCTURE_STRING | melting point
CCOC(=O)c1cn[nH]c1NC(=O)Nc1ccc(F)cc1 | 255 to 257 °C
OCc1nccn1Cc1ccccc1 | 94 to 97 °C

Now, please, on to the next compound.
input: Indicate the recorded melting point value for this compound: `O=C(O)C(F)(F)C(F)(F)C(F)(F)C(F)(F)C(F)(F)C(F)(C(F)(F)F)C(F)(F)F`
output: 33 to 36 °C

====

Below is a list of entries, each paired with its recorded melting point value.

For orientation, consider the following solved cases.
MOLECULE | PARAMETER_MEASURED | VALUE
Cc1ccc(C(Br)C(=O)c2ccc(Cl)cc2)cc1 (stereo not drawn) | melting point | 76 to 78 °C
COc1cc(C)c2c(c1)CCC(=Cc1ccccc1)C2=O | melting point | 96 to 97 °C

input: Please supply the value of reported melting point for the item `CSc1nsc(S)n1`
output: 143 to 147 °C

====

PARAMETER_MEASURED: melting point

Use these answered entries as a reference point.
COMPOUND | VALUE
CCCCCCCCCCCCCCCCCCCCCO | 68 to 71 °C
CC(=O)C1CCC2C3CC(C)C4=CC(=O)CCC4(C)C3C(O)CC12C (stereo unspecified) | 156 °C
Cn1c(=O)c(C(N)=S)cn(-c2ccccc2)c1=O | 229 to 232 °C
CCC(=O)OC(C)c1ccccc1 (stereo unspecified) | -60 °C
O=[N+]([O-])c1ccc(Oc2c(Cl)cc(S(=O)(=O)Cl)cc2Cl)c(Cl)c1 | 159 to 160 °C

Kindly review the next compound as well.
input: Give the value of melting point reported for the following: `c1ccc(-c2ccc3ncccc3c2)cc1`
output: 110 °C

====

PARAMETER_MEASURED: melting point

Answered cases to consult:
COMPOUND | melting point
O=c1c(Cl)c(Cl)cnn1-c1ccc(F)c(Cl)c1 | 201 to 203 °C
Nc1ccc(Cl)cc1O | 152 to 157 °C
CCOC(=O)C1=C(C)NC(=O)NC1c1ccccc1 (centres undefined) | 180 °C
COc1ccc(P2(=S)Nn3c(nnc3C(F)(F)F)S2)cc1 (centres undefined) | 211 °C
Cc1onc(-c2ccccc2)c1N=C=S | 73 to 77 °C

input: Note down melting point recorded for `Cc1ccc(S(=O)(=O)c2ncsc2SCc2ccc(Cl)cc2)cc1`
output: 151 to 153 °C

input: Tell me its melting point given `O=C(Cl)c1cc(-c2ccco2)on1` as the entry.
output: 74 to 76 °C

input: Report melting point for `COc1ccccc1-c1ccc(C=CC(=O)c2ccccc2)o1`
output: 98 to 99 °C

input: Note down melting point recorded for COc1cc2c(cc1OCc1ccccc1)C(CC(C)C)N(Oc1c([N+](=O)[O-])cc([N+](=O)[O-])cc1[N+](=O)[O-])CC2 (centres undefined)
output: 173 °C

input: Given `CSCC[C@@H](NC(=O)OC(C)(C)C)C(=O)O` , respond with its melting point.
output: 47 to 50 °C

input: Could you please provide reported melting point for `Cc1nccc(-c2cccc(S(=O)(=O)Cl)c2)n1` ? Thanks!
output: 174 to 175 °C

input: Return the recorded melting point value; entry: `O=C(COc1ncn(-c2ccc(Cl)cc2)n1)NNC(=S)Nc1ccc(F)cc1`
output: 181 to 183 °C

input: Quickly give me recorded melting point for `O=C(O)Cc1ccc(CBr)cc1`
output: 179 °C

input: Specify reported melting point for the compound shown: `O=C(O)C(F)(F)C(F)(F)C(F)(F)C(F)(F)C(F)(F)C(F)(F)C(F)(F)C(F)(F)C(F)(F)F`
output: 87.4 to 88.2 °C
